Molecular target: cruzain (Trypanosoma cruzi, UniProt P25779)
Sequence (P25779 123-467 limits assumed): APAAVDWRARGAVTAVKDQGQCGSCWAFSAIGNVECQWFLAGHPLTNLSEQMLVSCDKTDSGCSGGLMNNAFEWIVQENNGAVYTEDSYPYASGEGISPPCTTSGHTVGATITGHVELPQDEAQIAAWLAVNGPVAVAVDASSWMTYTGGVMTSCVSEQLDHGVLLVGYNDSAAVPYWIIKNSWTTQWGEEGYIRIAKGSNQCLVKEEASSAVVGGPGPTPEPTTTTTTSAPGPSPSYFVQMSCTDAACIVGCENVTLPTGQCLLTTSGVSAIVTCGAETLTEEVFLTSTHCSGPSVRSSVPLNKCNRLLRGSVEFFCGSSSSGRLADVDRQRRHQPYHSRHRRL
Test: Kinetic parameters of peptide substrates for cruzain
Format: biochemical
Settings: pH 7.5, 25° C., 10% DMSO
Non-standard residues stand in square brackets, D forms with d. Residues, ends and D or L forms follow the SMILES beside them. *: point of attachment. hPhe = N[CH](CCc1ccccc1)C(=O)O; 4Pal = N[CH](Cc1ccncc1)C(=O)O; AMC = Cc1cc(=O)oc2cc(N*)ccc12; Cbz = O=C(OCc1ccccc1)*
# kcat/Km per record follows
Answer in M⁻¹ s⁻¹, number only, no unit symbol.

Before answering, review these 4 worked examples.
- Cc1cc(=O)oc2cc(NC(=O)[C@H](CCCN=C(N)N)NC(=O)[C@H](Cc3ccccc3)NC(=O)OCc3ccccc3)ccc12 [Compound S1, Cbz-Phe-Arg-AMC] (Cbz-Phe-Arg-{AMC}): 1.1e+07
- Cc1cc(=O)oc2cc(NC(=O)C(CCc3ccccc3)NC(=O)C(CC(C)C)NC(=O)OCc3ccccc3)ccc12 (stereo not drawn) [Compound S3, Cbz-Leu-hPhe-AMC] (Cbz-Leu-[hPhe]-{AMC}; configuration not given here): 4e+06
- Cc1cc(=O)oc2cc(NC(=O)C(Cc3ccncc3)NC(=O)C(Cc3ccccc3)NC(=O)OCc3ccccc3)ccc12 (stereo not drawn) [Compound S5, Cbz-Phe-(4-Pyr)Ala-AMC] (Cbz-Phe-[4Pal]-{AMC}; configuration not given here): 2e+06
- Cc1cc(=O)oc2cc(NC(=O)C(CCc3ccccc3)NC(=O)C(CCCN=C(N)N)NC(=O)OCc3ccccc3)ccc12 (centres unmarked): 700000

Now turn to the next compound.
Name the reported kcat/Km value associated with the compound Cc1cc(=O)oc2cc(NC(=O)[C@H](Cc3ccccc3)NC(=O)[C@H](Cc3ccccc3)NC(=O)OCc3ccccc3)ccc12 [Compound S9, Cbz-Phe-Phe-AMC] (Cbz-Phe-Phe-{AMC})
800000

----------
Molecular target: cruzain (Trypanosoma cruzi)
Assay: Kinetic parameters of peptide substrates for cruzain
Assay type: biochemical
Details: relative to Cbz-Phe-Arg-AMC
Non-standard residues stand in square brackets, D forms with d. Residues, ends and D or L forms follow the SMILES beside them. *: point of attachment. hPhe = N[C@@H](CCc1ccccc1)C(=O)O; 4Pal = N[CH](Cc1ccncc1)C(=O)O; AMC = Cc1cc(=O)oc2cc(N*)ccc12; Cbz = O=C(OCc1ccccc1)*
endpoint-label: kcat rel
Could you respond with only the numeric value?

Before answering, review these 3 worked examples.
* Cc1cc(=O)oc2cc(NC(=O)[C@H](CCc3ccccc3)NC(=O)[C@H](Cc3ccccc3)NC(=O)OCc3ccccc3)ccc12 [Compound S2, Cbz-Phe-hPhe-AMC] (Cbz-Phe-[hPhe]-{AMC}) | 0.21
* Cc1cc(=O)oc2cc(NC(=O)C(CCc3ccccc3)NC(=O)C(Cc3ccccc3)NC(=O)N3CCN(C)CC3)ccc12 (stereo not drawn) [Compound S7, NMePip-Phe-hPhe-AMC] | 0.42
* Cc1cc(=O)oc2cc(NC(=O)C(Cc3ccncc3)NC(=O)C(Cc3ccccc3)NC(=O)OCc3ccccc3)ccc12 (stereo not drawn) [Compound S5, Cbz-Phe-(4-Pyr)Ala-AMC] (Cbz-Phe-[4Pal]-{AMC}; configuration not given here) | 0.76

Now turn to the next compound.
Name the reported kcat rel value associated with the compound Cc1cc(=O)oc2cc(NC(=O)[C@H](Cc3ccccc3)NC(=O)[C@H](Cc3ccccc3)NC(=O)OCc3ccccc3)ccc12 [Compound S9, Cbz-Phe-Phe-AMC] (Cbz-Phe-Phe-{AMC})
0.03

----------
Biological target: cruzain (Trypanosoma cruzi, UniProt P25779)
Test: biochemical
Details: pH 5.5, 25° C., 10% DMSO; read-out: Ki* Cruzain
endpoint-label: pKi
pKi is defined as minus the log10 of a concentration measured in mol/L.

Record "C[n+]1ccccc1/C=C/[C@H](CCc1ccccc1)NC(=O)[C@H](Cc1ccccc1)NC(=O)OCc1ccccc1" : what is its pKi with cruzain (Trypanosoma cruzi, UniProt P25779)?
7.06

----------
Target: cruzain (Trypanosoma cruzi, UniProt P25779)
Assay: biochemical
Settings: apparent initial inhibition constant; 25° C., pH 7.5; read-out: Ki
Entries whose Ki is below 8 µM take label 1; entries at or above 8 µM take label 0.

* O=C(N[C@@H](Cc1ccccc1)C(=O)N[C@H](/C=C/c1ncccn1)Cc1ccccc1)OCc1ccccc1 | label 0
* O=C(N[C@@H](Cc1ccccc1)C(=O)N[C@H](/C=C/c1ccncn1)Cc1ccccc1)OCc1ccccc1 | label 0
* NC(=O)/C=C/[C@H](CCc1ccccc1)NC(=O)[C@H](Cc1ccccc1)NC(=O)OCc1ccccc1 | label 1
* C[n+]1ccccc1/C=C/[C@H](Cc1ccccc1)NC(=O)[C@H](Cc1ccccc1)NC(=O)OCc1ccccc1.[I-] | label 1
* C[n+]1ccc(/C=C/[C@H](Cc2ccccc2)NC(=O)[C@H](Cc2ccccc2)NC(=O)OCc2ccccc2)cc1 | label 0

Please look at the following molecule next.
Below 8 µM on Ki? Entry "NC(=O)/C=C/[C@H](Cc1ccccc1)NC(=O)[C@H](Cc1ccccc1)NC(=O)OCc1ccccc1"
label 0

----------
# CC50 per record follows
Tested on: C2C12 mouse cardiomyoblast cell line
Experiment: Host cell cytotoxicity in the T. cruzi infection model
Assay type: cell-based

* C[n+]1ccccc1/C=C/[C@H](CCc1ccccc1)NC(=O)[C@H](Cc1ccccc1)NC(=O)OCc1ccccc1 [Compound 15] | > 10 µM

Record O=C(N[C@@H](Cc1ccccc1)C(=O)N[C@H]1Cc2ccccc2OC1O)OCc1ccccc1 (some centres unmarked) [Compound 30] : what is its CC50 with C2C12 mouse cardiomyoblast cell line?
> 10 µM

----------
Target: cruzain (Trypanosoma cruzi, UniProt P25779)
Test: biochemical
Details: apparent tight-binding inhibition constant; 25° C., pH 7.5; read-out: Ki*
# pKi per record follows
pKi is defined as minus the log10 of a concentration measured in mol/L.

Name the reported pKi value associated with the compound "C[n+]1ccc(/C=C/[C@H](Cc2ccccc2)NC(=O)[C@H](Cc2ccccc2)NC(=O)OCc2ccccc2)cc1"
5.40

Name the reported pKi value associated with the compound "O=C(N[C@@H](Cc1ccccc1)C(=O)N[C@H](/C=C/c1ccncc1)Cc1ccccc1)OCc1ccccc1"
5.26

Name the reported pKi value associated with the compound "O=C(N[C@@H](Cc1ccccc1)C(=O)N[C@H](/C=C/c1ccccn1)Cc1ccccc1)OCc1ccccc1"
6.51

----------
Biological target: cruzain (Trypanosoma cruzi)
Experiment: biochemical
Conditions: pH 5.5; read-out: Ki* Cruzain
endpoint-label: Ki (nM)
Answer in nM, number only, no unit symbol.

Name the reported Ki value associated with the compound "C[n+]1ccccc1/C=C/[C@H](CCc1ccccc1)NC(=O)[C@H](Cc1ccccc1)NC(=O)OCc1ccccc1"
88

----------
Target: cruzain (Trypanosoma cruzi, UniProt P25779)
Test: Kinetic parameters of peptide substrates for cruzain
Format: biochemical
Details: pH 7.5, 25° C., 10% DMSO
Description: All enzyme assays were performed at 25° C. Initial rates of the peptidolytic reaction catalyzed by cruzain were measured by monitoring the fluorescence generated by cleavage of the dipeptide-AMC bond. […] Fluorescence was measured on either a SpectraMax M5 (Molecular Devices) or a Synergy HTX (BioTek, Winooski, VT) microplate reader (λex=360 nm, λem=460 nm). Initial rates were determined from continuous kinetic time courses and calculated from the earliest time points, typically at less than 10 min. […]
Non-standard residues stand in square brackets, D forms with d. Residues, ends and D or L forms follow the SMILES beside them. *: point of attachment. hPhe = N[C@@H](CCc1ccccc1)C(=O)O; 4Pal = N[C@@H](Cc1ccncc1)C(=O)O; AMC = Cc1cc(=O)oc2cc(N*)ccc12; Cbz = O=C(OCc1ccccc1)*
endpoint-label: kcat/Km (M⁻¹ s⁻¹)
Answer in M⁻¹ s⁻¹, number only, no unit symbol.

Before answering, review these 2 worked examples.
• Cc1cc(=O)oc2cc(NC(=O)[C@H](CCc3ccccc3)NC(=O)[C@H](Cc3ccncc3)NC(=O)OCc3ccccc3)ccc12 [Compound S8, Cbz-(4-Pyr)Ala-hPhe-AMC] (Cbz-[4Pal]-[hPhe]-{AMC}) = 1.1e+06
• Cc1cc(=O)oc2cc(NC(=O)[C@H](CCCN=C(N)N)NC(=O)[C@H](CC(C)C)NC(=O)OCc3ccccc3)ccc12 = 3.8e+06

Now turn to the next compound.
Name the reported kcat/Km value associated with the compound Cc1cc(=O)oc2cc(NC(=O)[C@H](Cc3ccccc3)NC(=O)[C@H](Cc3ccccc3)NC(=O)N3CCN(C)CC3)ccc12 [Compound S11, NMePip-Phe-Phe-AMC]
200000

----------
# Ki per record follows
Molecular target: human cathepsin L (Homo sapiens (Human))
Sequence (P07711 114-333): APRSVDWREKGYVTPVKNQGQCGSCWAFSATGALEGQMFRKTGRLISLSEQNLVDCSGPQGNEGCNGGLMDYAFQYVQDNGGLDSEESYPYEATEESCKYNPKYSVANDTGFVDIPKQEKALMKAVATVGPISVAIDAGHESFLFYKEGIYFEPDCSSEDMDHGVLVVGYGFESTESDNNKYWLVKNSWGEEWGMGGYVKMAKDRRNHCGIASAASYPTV
Test: Human cathepsin L inhibition, Z-FR-AMC assay
Assay type: biochemical
Settings: pH 5.5, 25° C.; read-out: Ki* hCatL
Description: Recombinant human cathepsins B and L were purchased from Millipore Sigma and used without further treatment. […] For assays of cathepsin L and B, inhibitors were evaluated in 0.25-mL reaction mixtures containing a buffer of sodium acetate (pH 5.5), 1 mM CHAPS, 1 mM Na2EDTA, and 5 mM DTT at 25° C. […] Formation of the fluorescent product AMC was monitored over 30-60-minute time courses for reaction mixtures in 96-well black microplates (Corning Costar®). […]
Residues, ends and D or L forms follow the SMILES beside them. *: point of attachment. Cbz = O=C(OCc1ccccc1)*
Answer in nM, number only, no unit symbol.

Before answering, review these 3 worked examples.
- O=C(N[C@@H](Cc1ccccc1)C(=O)N[C@H]1Cc2ccccc2OC1O)OCc1ccccc1 (some centres unmarked) [Compound 30]: 28
- O=C(NC(Cc1ccccc1)C(=O)NC1Cc2cc(F)ccc2OC1O)OCc1ccccc1 (centres unmarked) [Compound 34]: 23
- O=C(NC(Cc1ccccc1)C(=O)NC1Cc2cc(Cl)ccc2OC1O)OCc1ccccc1 (centres unmarked) [Compound 33]: 27

Name the reported Ki value associated with the compound O=C[C@H](Cc1ccccc1)NC(=O)[C@H](Cc1ccccc1)NC(=O)OCc1ccccc1 [Compound 28] (Cbz-Phe-Phe-aldehyde)
0.31

Name the reported Ki value associated with the compound COc1ccc2c(c1)CC(NC(=O)C(Cc1ccccc1)NC(=O)OCc1ccccc1)C(O)O2 (centres unmarked) [Compound 31]
38

Name the reported Ki value associated with the compound COC(=O)c1ccc2c(c1)CC(NC(=O)C(Cc1ccccc1)NC(=O)OCc1ccccc1)C(O)O2 (centres unmarked) [Compound 35]
10.8

Name the reported Ki value associated with the compound Cc1ccc2c(c1)C[C@H](NC(=O)[C@H](Cc1ccccc1)NC(=O)OCc1ccccc1)C(O)O2 (some centres unmarked) [Compound 32]
58

Name the reported Ki value associated with the compound CN1CCN(C(=O)NC(Cc2ccccc2)C(=O)NC2Cc3ccccc3OC2O)CC1 (centres unmarked) [Compound 36]
20
